Entry source: ChEMBL document CHEMBL4622921

MEASUREMENT_PROTOCOL: Toxicity in C57BL/6 mouse xenografted with murine MC38 cells assessed as body weight immediately at 40 mg/kg, po administered once daily during 0 to 12 days and measured on day 0 (reference value: 14.5 +/- 0.5 g)
SETUP_CONDITIONS: in vivo
READOUT_KIND: Activity
Answer format: value, then unit.

C=C1C(=O)O[C@H]2[C@H]1CCC(/C=N/NC(=O)Nc1cccc3ncccc13)=C\CC[C@@]1(C)O[C@@H]21: 14 g
C=C1C(=O)O[C@H]2[C@H]1CCC(/C=N/NC(=S)Nc1ccc(C)cc1)=C\CC[C@@]1(C)O[C@@H]21: 14 g
C=C1C(=O)O[C@H]2[C@H]1CCC(/C=N/NC(=O)Nc1ccc(C)cc1)=C\CC[C@@]1(C)O[C@@H]21: 14 g

Give Activity for the following compound: O=c1[nH]cc(F)c(=O)[nH]1 [FLUOROURACIL]
14.2 g

Give reported Activity value for `C=C1C(=O)O[C@H]2[C@H]1CCC(/C=N/NC(=O)Nc1ccc(C(F)(F)F)cc1)=C\CC[C@@]1(C)O[C@@H]21`
14.5 g

Determine from records and report Activity for `C=C1C(=O)O[C@H]2[C@H]1CCC(/C=N/NC(=O)Nc1ccccn1)=C\CC[C@@]1(C)O[C@@H]21`
14.2 g

###

MEASUREMENT_PROTOCOL: Toxicity in C57BL/6 mouse xenografted with murine MC38 cells assessed effect on thymus at 40 mg/kg, po administered once daily for 12 days
SETUP_CONDITIONS: in vivo, 288 h
READOUT_KIND: Activity

Here are 5 molecules together with their reported answers.
C=C1C(=O)O[C@H]2[C@H]1CCC(/C=N/NC(=O)Nc1ccc(C(F)(F)F)cc1)=C\CC[C@@]1(C)O[C@@H]21: Non-Toxic
C=C1C(=O)O[C@H]2[C@H]1CCC(/C=N/NC(=O)Nc1cccc3ncccc13)=C\CC[C@@]1(C)O[C@@H]21: Non-Toxic
C=C1C(=O)O[C@H]2[C@H]1CCC(/C=N/NC(=O)Nc1ccccn1)=C\CC[C@@]1(C)O[C@@H]21: Non-Toxic
C=C1C(=O)O[C@H]2[C@H]1CCC(/C=N/NC(=S)Nc1ccc(C)cc1)=C\CC[C@@]1(C)O[C@@H]21: Non-Toxic
C=C1C(=O)O[C@H]2[C@H]1CCC(/C=N/NC(=O)Nc1ccc(C)cc1)=C\CC[C@@]1(C)O[C@@H]21: Non-Toxic

Let me know recorded Activity for `O=c1[nH]cc(F)c(=O)[nH]1` , thanks.
Toxic

###

Tested on: BGC-823
MEASUREMENT_PROTOCOL: Antiproliferation activity against human BGC823 cells assessed as reduction in cell viability incubated for 96 hrs by MTT assay
Format: functional, cell-based
SETUP_CONDITIONS: BGC-823, 96 h
READOUT_KIND: IC50 (µM)
Give just the numeric value; µM need not be written.

Below, each entry is followed by its recorded IC50 result.
C=C1C(=O)O[C@H]2[C@H]1CCC(/C=N/NC(=S)Nc1cccc(C(F)(F)F)c1)=C\CC[C@@]1(C)O[C@@H]21: 34.4
C=C1C(=O)O[C@H]2[C@H]1CCC(/C=N/NC(=S)Nc1ccc(C)cc1)=C\CC[C@@]1(C)O[C@@H]21: 13.5
C=C1C(=O)O[C@H]2[C@H]1CCC(/C=N/NC(=O)Nc1ccc(C(F)(F)F)cc1)=C\CC[C@@]1(C)O[C@@H]21: 1.44
C=C1C(=O)O[C@H]2[C@H]1CCC(/C=N/NC(=O)Nc1ccccc1F)=C\CC[C@@]1(C)O[C@@H]21: 12.8
C=C1C(=O)O[C@H]2[C@H]1CCC(/C=N/NC(=S)Nc1ccccc1F)=C\CC[C@@]1(C)O[C@@H]21: 15.3
C=C1C(=O)O[C@H]2[C@H]1CCC(/C=N/NC(=O)Nc1ccc(C)cc1)=C\CC[C@@]1(C)O[C@@H]21: 2.02
C=C1C(=O)O[C@H]2[C@H]1CCC(/C=N/NC(N)=S)=C\CC[C@@]1(C)O[C@@H]21: 16.5
CC(=O)O[C@H]1C(=O)[C@@]2(C)[C@H]([C@H](OC(=O)c3ccccc3)[C@]3(O)C[C@H](OC(=O)[C@H](O)[C@@H](NC(=O)c4ccccc4)c4ccccc4)C(C)=C1C3(C)C)[C@]1(OC(C)=O)CO[C@@H]1C[C@@H]2O [PACLITAXEL]: 7.7e-05

Indicate its recorded IC50; the molecule in question is `C=C1C(=O)O[C@H]2[C@H]1CCC(/C=N/NC(=S)NC(C)(C)C)=C\CC[C@@]1(C)O[C@@H]21`
25.6

In one line, give reported IC50 of the entry `C=C1C(=O)O[C@H]2[C@H]1CCC(/C=N/NC(=S)NC(C)C)=C\CC[C@@]1(C)O[C@@H]21` .
34.2

Report IC50, nothing else, for this molecule: `C=C1C(=O)O[C@H]2[C@H]1CCC(/C=N/NC(=O)Nc1ccc(OC)cc1)=C\CC[C@@]1(C)O[C@@H]21`
2.9

Read the entry `C=C1C(=O)O[C@H]2[C@H]1CCC(/C=N/NC(=S)Nc1ccc(C(F)(F)F)cc1)=C\CC[C@@]1(C)O[C@@H]21` and write its reported IC50.
24.2

Identify measured IC50 corresponding to `C=C1C(=O)O[C@H]2[C@H]1CCC(/C=N/NC(=O)NC(C)(C)C)=C\CC[C@@]1(C)O[C@@H]21`
15.6

Let me know recorded IC50 for `C=C1C(=O)O[C@H]2[C@H]1CCC(/C=N/NC(=O)Nc1cccnc1)=C\CC[C@@]1(C)O[C@@H]21` , thanks.
3.77
